- PROCEDURE_SUMMARY: Oral bioavailability in rat at 1 mg/kg
- Assay type: ADME, organism-based
- EXPERIMENTAL_SETUP: in vivo
PROPERTY_LABEL: bioavailability

Input: Can you share its bioavailability? I mean this compound: C[C@]1(c2ccc(OC(F)(F)F)cc2)C[C@](O)(c2ccccn2)CO1 (single isomer, unassigned)
Output: 56%

====

- EXPERIMENTAL_TARGET: Transient receptor potential cation channel subfamily V member 3 (Homo sapiens) (UniProt Q8NET8)
- Sequence (whole entry): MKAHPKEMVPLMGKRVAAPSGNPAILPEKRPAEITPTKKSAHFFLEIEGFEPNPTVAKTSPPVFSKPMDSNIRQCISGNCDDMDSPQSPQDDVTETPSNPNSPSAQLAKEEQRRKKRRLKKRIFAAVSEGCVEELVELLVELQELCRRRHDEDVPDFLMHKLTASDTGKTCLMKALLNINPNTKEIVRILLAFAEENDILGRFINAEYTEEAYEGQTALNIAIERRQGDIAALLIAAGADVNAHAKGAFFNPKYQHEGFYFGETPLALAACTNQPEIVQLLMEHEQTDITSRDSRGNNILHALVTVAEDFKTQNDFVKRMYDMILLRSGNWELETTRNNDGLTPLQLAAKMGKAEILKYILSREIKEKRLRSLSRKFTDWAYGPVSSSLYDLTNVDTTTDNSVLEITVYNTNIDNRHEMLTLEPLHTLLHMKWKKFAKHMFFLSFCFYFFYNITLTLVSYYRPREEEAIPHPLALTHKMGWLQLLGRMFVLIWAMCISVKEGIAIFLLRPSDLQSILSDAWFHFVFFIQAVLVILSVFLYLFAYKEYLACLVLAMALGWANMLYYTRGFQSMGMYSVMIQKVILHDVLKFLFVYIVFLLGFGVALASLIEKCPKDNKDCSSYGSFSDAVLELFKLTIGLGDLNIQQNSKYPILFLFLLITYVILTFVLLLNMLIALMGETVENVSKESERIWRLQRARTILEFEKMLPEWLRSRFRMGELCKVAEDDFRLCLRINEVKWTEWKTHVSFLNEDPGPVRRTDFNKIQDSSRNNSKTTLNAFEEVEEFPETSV
- PROCEDURE_SUMMARY: Antagonist activity at human TRPV3 expressed in recombinant HEK293 cells assessed as inhibition of 2-APB induced calcium flux by FLIPR analysis
- Format: cell-based
Binary call on Kb: criterion met from 500 nM upward, criterion not met beneath that.

Input: I'd appreciate it if you could say whether OC(c1ccc(F)cn1)C1(c2ccc(Cl)c(Cl)c2)CCC1 (racemic) has Kb at least equal to 500 nM.
Output: criterion met

Input: API: above_or_equal(metric=Kb, cutoff=500 nM) for item `O[C@H](c1ccccn1)[C@]1(c2ccc(Cl)c(Cl)c2)CCCO1`
Output: criterion not met

Input: Exam item: decide whether the reported Kb for `O[C@H](c1ncccn1)C1(c2ccc(Cl)c(Cl)c2)CCC1` is at least 500 nM.
Output: criterion not met

Input: Record OC(c1ccccn1)C1(c2ccc(C(F)(F)F)cc2)CNC1 (stereo unspecified) ; criterion: Kb no lower than 500 nM. Met?
Output: criterion met

Input: Please tell me: is the compound CN1CC(c2ccc(C(F)(F)F)cc2)(C(O)c2ccccn2)C1 (stereo unspecified) at or over 500 nM in terms of Kb?
Output: criterion met

Input: API: above_or_equal(metric=Kb, cutoff=500 nM) for item `O[C@H](c1ccccn1)C1(c2ccc(OC(F)(F)F)cc2)CCC1`
Output: criterion not met
